target: EP2 (Homo sapiens (Human), UniProt P43116);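 note: antagonism of PGE2-stimulated cAMP accumulation in SF295 human glioblastoma cells with endogenous EP2, cAMP read by HTRF, expressed relative to DMSO control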
Sequence (P43116 whole entry): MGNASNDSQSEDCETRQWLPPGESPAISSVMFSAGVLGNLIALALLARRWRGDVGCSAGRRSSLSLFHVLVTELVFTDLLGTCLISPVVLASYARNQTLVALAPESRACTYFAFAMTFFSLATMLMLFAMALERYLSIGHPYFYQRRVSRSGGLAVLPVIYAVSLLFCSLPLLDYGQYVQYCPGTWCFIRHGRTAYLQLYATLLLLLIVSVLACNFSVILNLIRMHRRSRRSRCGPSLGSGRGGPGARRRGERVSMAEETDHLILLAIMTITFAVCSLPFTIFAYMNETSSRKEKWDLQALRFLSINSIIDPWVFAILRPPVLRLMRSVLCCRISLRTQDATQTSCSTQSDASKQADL
Recorded measurements of IC50, one per entry
Hi! Could you send only the number? It should be in nM, unit omitted.

Some compounds with known IC50 results, for comparison:
{"LINE_NOTATION": "COc1ccc(F)c2c1cc(C)n2CCNc1cc(-c2ccc3oc(C)nc3c2)ncn1", "VALUE_KIND": "IC50", "REPORTED_VALUE": 80}
{"LINE_NOTATION": "CCCc1cc(-c2cc(NCCn3c(C)cc4c(OC(F)(F)F)ccc(F)c43)ncn2)ccc1C(=O)O", "VALUE_KIND": "IC50", "REPORTED_VALUE": 773}
{"LINE_NOTATION": "CCOc1cc(-c2cc(NCCn3c(C)cc4c(OC)cccc43)ncn2)ccc1CNC1CC1", "VALUE_KIND": "IC50", "REPORTED_VALUE": 252}
{"LINE_NOTATION": "COc1ccc(F)c2c1cc(C)n2CCNc1cc(-c2cc(OC(C)C)c(C(=O)O)s2)ncn1", "VALUE_KIND": "IC50", "REPORTED_VALUE": 4}
{"LINE_NOTATION": "CCCCOc1cc(-c2cc(NCCn3c(C)cc4c(OC)ccc(F)c43)ncn2)ccc1C(=O)O", "VALUE_KIND": "IC50", "REPORTED_VALUE": 2}
{"LINE_NOTATION": "COc1c(F)ccc2c1cc(C)n2CCNc1cc(-c2ccc(C(=O)O)c(CC(C)C)c2)ncn1", "VALUE_KIND": "IC50", "REPORTED_VALUE": 64}
{"LINE_NOTATION": "COc1cc(F)c(F)c2c1cc(C)n2CCNc1cc(-c2ccc(-c3ccno3)cc2)ncn1", "VALUE_KIND": "IC50", "REPORTED_VALUE": 25}

Attention now shifts to the item below.
The compound `CCOc1cc(-c2cc(NCCn3c(C)cc4c(OC)c(Cl)cc(F)c43)ncn2)sc1C(=O)O` showed IC50 equal to 345

----------
The entries below are paired with their reported log10(IC50).
target: PTGER2 (EP2) (Homo sapiens (Human), UniProt P43116); test: hEP2 b-arrestin assay (PathHunter HEK 293 PTGER2 b-arrestin cells); type: cell-based; conditions: hEP2 b-arrestin assay (values without asterisk)
Sequence (P43116 whole entry): as above
Each number you see is log10 of IC50, and the unit inside the log is nM.

Short answer for COc1ccc(F)c2c1cc(C#N)n2CCNc1cc(-c2ccc(-c3cn(C)c(C4CC4)n3)cc2)ncn1 [Example 827] : log10(IC50) was 1.20

log10(IC50) reading for COc1ccc(F)c2c1cc(C#N)n2CCNc1cc(-c2ccc3[nH]c(=O)oc3c2)ncn1 [Example 972] : 0.78

log10(IC50) for COc1ccc(F)c2c1cc(C#N)n2CCNc1cc(-c2ccc(-c3nc(=O)[nH]o3)cc2)ncn1 [Example 831] is 1.28

The measured log10(IC50) associated with COc1ccc(F)c2c1cc(C#N)n2CCNc1cc(-c2ccc3[nH]c(=O)[nH]c3c2)ncn1 [Example 987] reads 1.64

Form: compound = CCOc1cc(-c2cc(NCCn3c(C#N)cc4c(OC)ccc(F)c43)ncn2)sc1C(=O)NS(N)(=O)=O [Example 1029] ; log10(IC50) = 0.60

# log10(IC50) (compound: COc1ccc(F)c2c1cc(C#N)n2CCNc1cc(-c2c[nH]c3ccccc23)ncn1 [Example 968] ) is 0.60

// log10(IC50) value for CCOc1cc(-c2cc(NCCn3c(C#N)cc4c(OC)cc(F)c(F)c43)ncn2)ccc1C(=O)O [Example 957] : 1.75

Consider N#Cc1cc2c(Cl)cc(Cl)cc2n1CCNc1cc(-c2cc(F)c(C(=O)O)s2)ncn1 [Example 850] . Its measured log10(IC50) is 0.30

----------
target: PTGER2 (EP2) (Homo sapiens (Human), UniProt P43116); assay: hEP2 b-arrestin assay (PathHunter HEK 293 PTGER2 b-arrestin cells); type: cell-based; conditions: hEP2 b-arrestin assay (values without asterisk)
VALUE_KIND: pIC50
For clarity, pIC50 is expressed as the negative log10 of concentration in mol/L.

// known answers, use as guide
{"COMPOUND": "CCOc1cc(-c2cc(NCCn3c(C#N)cc4c(OC)ccc(F)c43)ncn2)sc1CCC(=O)O [Example 932]", "VALUE_KIND": "pIC50", "REPORTED_VALUE": 7.85}
{"COMPOUND": "COCCNC(=O)c1ccc(-c2cc(NCCn3c(C#N)cc4c(OC)ccc(F)c43)ncn2)cc1 [Example 996]", "VALUE_KIND": "pIC50", "REPORTED_VALUE": 7.41}
{"COMPOUND": "CCCSc1cc(-c2cc(NCCn3c(C#N)cc4c(OC)ccc(F)c43)ncn2)ccc1C(=O)O [Example 935]", "VALUE_KIND": "pIC50", "REPORTED_VALUE": 8.15}
{"COMPOUND": "CCOc1cc(C(=O)O)cc(-c2cc(NCCn3c(C#N)cc4c(OC)ccc(F)c43)ncn2)c1 [Example 1002]", "VALUE_KIND": "pIC50", "REPORTED_VALUE": 7.70}
{"COMPOUND": "CCSc1cc(-c2cc(NCCn3c(C#N)cc4c(OC)cc(F)cc43)ncn2)ccc1C(=O)O [Example 954]", "VALUE_KIND": "pIC50", "REPORTED_VALUE": 7.82}
{"COMPOUND": "CCOc1cc(-c2cc(NCCn3c(C#N)cc4c(Cl)cccc43)ncn2)ccc1NCC(=O)O [Example 915]", "VALUE_KIND": "pIC50", "REPORTED_VALUE": 7.92}

GET /values?item= COc1ccc(F)c2c1cc(C#N)n2CCNc1cc(-c2ccc3nccn3c2)ncn1 [Example 995] &system= PTGER2 (EP2) (Homo sapiens (Human), UniProt P43116) returns pIC50: 7.89

Measured on PTGER2 (EP2) (Homo sapiens (Human), UniProt P43116), N#Cc1cc2c(Cl)cccc2n1CCNc1cc(-c2cc(C(F)(F)F)c(C(=O)O)s2)ncn1 [Example 911] has a documented pIC50 of 8.15

Record for COc1ccc(F)c2c1cc(C)n2CCNc1cc(-c2ccc(C(=O)O)c(C#N)c2)ncn1 [Example 888] under target or system PTGER2 (EP2) (Homo sapiens (Human), UniProt P43116): pIC50 reported as 7.39

Observed pIC50 on PTGER2 (EP2) (Homo sapiens (Human), UniProt P43116), entry COc1ccc(F)c2c1cc(C#N)n2CCNc1cc(-c2ccc(B(O)O)cc2)ncn1 [Example 989] , equals 7.17

pIC50 on PTGER2 (EP2) (Homo sapiens (Human), UniProt P43116) for COc1ccc(F)c2c1cc(C#N)n2CCNc1cc(-c2ccnc(OC(F)F)c2)ncn1 [Example 1006] is 6.88

The recorded pIC50 with PTGER2 (EP2) (Homo sapiens (Human), UniProt P43116) for CCOc1cc(-c2cc(NCCn3c(C#N)cc4c(OC)ccc(F)c43)ncn2)ccc1OCC(=O)O [Example 808] was 8.15

I looked up COc1n[nH]c2cc(-c3cc(NCCn4c(C#N)cc5c(OC)ccc(F)c54)ncn3)ccc12 [Example 918] and its pIC50 for PTGER2 (EP2) (Homo sapiens (Human), UniProt P43116) was 7.59

# value of pIC50, PTGER2 (EP2) (Homo sapiens (Human), UniProt P43116), item COc1ccc(F)c2c1cc(C#N)n2CCNc1cc(-c2ccnc(N3CCOCC3)c2)ncn1 [Example 1003] = 7.26

# lookup: COc1ccc(F)c2c1cc(C#N)n2CCNc1cc(-c2ccc(O)c(C(F)(F)F)c2)ncn1 [Example 1001] on PTGER2 (EP2) (Homo sapiens (Human), UniProt P43116), pIC50 = 8.22

Record CCOc1cc(-c2cc(NCCn3c(C)cc4c(C)c(F)cc(Cl)c43)ncn2)sc1C(=O)O [Example 837] has PTGER2 (EP2) (Homo sapiens (Human), UniProt P43116) pIC50 equal to 7.55

----------
Biological target: PTGER2 (EP2) (Homo sapiens (Human), UniProt P43116)
Assay: hEP2 b-arrestin assay (PathHunter HEK 293 PTGER2 b-arrestin cells)
Format: cell-based
Details: hEP2 b-arrestin assay (values without asterisk)
Experimental: The assay is using the PathHunter™ HEK 293 PTGER2 and PTGER4 b-arrestin cell lines from DiscoverX. The system is based on the Enzyme Fragment Complementation Technology. […] Twelve μl of reagent are transferred to the assay plate and incubate for 1 hour at room temperature in the dark. Luminescence counts are read on a BMG Fluostar Optima reader according to manufacturer's instructions. […] (each concentration is measured in duplicate)
Class definitions on IC50: range 1 (below 8 nM), range 2 (8 nM to below 30 nM), range 3 (30 nM or more)

Please review the following examples before continuing.
{"MOLECULE": "N#Cc1cc2c(Cl)cc(F)c(F)c2n1CCNc1cc(-c2cc(F)c(C(=O)O)s2)ncn1", "CATEGORY_LABEL": "range 1"}
{"MOLECULE": "COc1cccc2c1cc(C#N)n2CCNc1cc(-c2cc(C(F)(F)F)c(C(=O)O)s2)ncn1", "CATEGORY_LABEL": "range 2"}
{"MOLECULE": "[2H]C([2H])(Nc1cc(-c2cc(Cl)c(C(=O)O)c(OCCCC)c2)ncn1)C([2H])([2H])n1c(C)cc2c(OC)ccc(F)c21", "CATEGORY_LABEL": "range 1"}
{"MOLECULE": "COc1ccc(F)c2c1cc(C)n2CCNc1cc(-c2cc(C(F)(F)F)c(-c3nn[nH]n3)s2)ncn1", "CATEGORY_LABEL": "range 2"}
{"MOLECULE": "COc1ccc(F)c2c1cc(C#N)n2CCNc1cc(-c2ccc(-c3ncn(C)c3C)cc2)ncn1", "CATEGORY_LABEL": "range 1"}

// query Which class is correct for the following molecule? `COc1ccc(F)c2c1cc(C#N)n2CCNc1cc(-c2ccc(-c3c[nH]c(C4CC4)n3)cc2)ncn1`
// result range 1
